assay: melting temperature; fluorescence melt of hairpins on a sequencing array, two-state fit, raised by 9.35 °C to match UV melts; details: sodium 0.088 M
Recorded endpoint: Tm (°C)
Give your result in °C as a bare value.

State its Tm for this sequence: GCTACCGAAAGGTTAAGC ((((((....)))..))) 39.4

State its Tm for this sequence: GATCCGAGTGCGGATC ((((((....)))))) 59.1

State its Tm for this sequence: GATCCTAACTAGGATC ((((((....)))))) 53.3

State its Tm for this sequence: GGTACTCGAAAGAGAACC (((.(((....))).))) 49.8

State its Tm for this sequence: GATCTGGTGCCAGATC ((((((....)))))) 52.2

State its Tm for this sequence: GATCTGCGTCAGATC ((((((...)))))) 49.6

State its Tm for this sequence: GGGTAAGGAAACTCACCC ((((.((....)).)))) 36.8

State its Tm for this sequence: GCAGCGCGAAAGCAATGC (((..((....))..))) 54.9

State its Tm for this sequence: GCAGATGGAAACACCTGC ((((.((....)).)))) 44.2

State its Tm for this sequence: GCGTAAGAAATTACGC ((((((....)))))) 55.3

State its Tm for this sequence: GGTAGCGAAAGCTCTACC ((((((....)))..))) 38.1

State its Tm for this sequence: GTAAAGGGAAACCTTTAC (((((((....))))))) 51.3

State its Tm for this sequence: GCGTACGAACGC ((((....)))) 51.5

State its Tm for this sequence: GACCATACGAAAGTAGTC (((..(((....)))))) 25.7

State its Tm for this sequence: GTATACGAAAGTAGTAC ((((((....))).))) 29.6

State its Tm for this sequence: GCCCACGAAAGTGCGGC ((((((....))).))) 63.3

State its Tm for this sequence: GATCGCCCGGCGATC ((((((...)))))) 68.5

State its Tm for this sequence: GCAACTGGAAACAGTTGC (((((((....))))))) 67.1

State its Tm for this sequence: GCAGGCGAAAGCCTTTGC ((((((....)))..))) 41

State its Tm for this sequence: GGTGCCGGAAACGGTGCC ((..(((....)))..)) 56.6

State its Tm for this sequence: GTACGCGAAAGCGAATAC ((((((....)))..))) 31.9

State its Tm for this sequence: GGTCAGCGAAAGCTACC (((.(((....)))))) 47.5

State its Tm for this sequence: GCTTGCGAAAGCAGCAGC ((((((....)))..))) 46.4

State its Tm for this sequence: GGATGCGAAAGCAATTCC ((((((....)))..))) 36.7

State its Tm for this sequence: GATCCAATCGTGGATC ((((((....)))))) 49

State its Tm for this sequence: GAAACAGAAATGTTTC ((((((....)))))) 45.9

State its Tm for this sequence: GGCTGCGGAAACGTGGCC (((..((....))..))) 56.5

State its Tm for this sequence: GAATAGGGAAACCTATTC (((((((....))))))) 50

State its Tm for this sequence: GACTGCGGAAACGCGGTC (((.(((....))).))) 63.5

State its Tm for this sequence: GTGTTCGCGAAAGCGCAC (((..(((....)))))) 45.2

State its Tm for this sequence: GATCCGCTGTCGGATC ((((((....)))))) 57.8

State its Tm for this sequence: GCACAGCCGAAAGGCTGC (((..(((....)))))) 39.9

State its Tm for this sequence: GCACGAACGAAAGTTTGC (((..(((....)))))) 33.5

State its Tm for this sequence: GGTCAGGGAAACCTGGCC ((.((((....)))).)) 57.5

State its Tm for this sequence: GTCACGGGAAACCATGAC ((((.((....)).)))) 41.7

State its Tm for this sequence: GCGGACGGAAACACCCGC ((((..(....)..)))) 41.9

State its Tm for this sequence: GGGTTTGGAAACAAATCC ((.((((....)))).)) 47.4

State its Tm for this sequence: GAAACGGGAAACTGTTTC (((((.(....).))))) 44.9

State its Tm for this sequence: GTATTGGGAAACCAATGC (.(((((....))))).) 44.3

State its Tm for this sequence: GCTGTCGAAAGACTGAGC ((((((....)))..))) 43

State its Tm for this sequence: GTTTTAGGAAACTGAAAC ((((.((....)).)))) 35.2

State its Tm for this sequence: GTGATCGGAAACGATTAC ((.((((....)))).)) 48.2

State its Tm for this sequence: CGATTCGGAAACGATCG (((.(((....)))))) 44

State its Tm for this sequence: GTCCAACGAAAGTTGAC (((.(((....)))))) 45

State its Tm for this sequence: GACGGGGGAAACCCCATC ((.((((....)))).)) 37

State its Tm for this sequence: GCTCTGCGAAAGCAAGGC ((..(((....)))..)) 46.9

State its Tm for this sequence: GTAACTGGAAACAGTCAC ((.((((....)))).)) 34.8

State its Tm for this sequence: GTACGGGGAAACCTGTAC ((((.((....)).)))) 49.7

State its Tm for this sequence: GTATGTGGAAACACGTAC (((.(((....))).))) 47.1

State its Tm for this sequence: GCTATCGAAAGATACAGC ((((((....)))..))) 32.6
